mass density values, listed per item
settings: 303.15 K; 101 kPa; Liquid; Vibrating tube method
Provide only the numeric value, understood in kg/m3.

Examples with their reported mass density follow.
CCCCC(C)O (stereo unspecified) :: 806.13
CCCCCC(C)O (stereo unspecified) :: 809.26
CCCC(C)O (stereo unspecified) :: 801.21
CCC(C)O (stereo unspecified) :: 798.3
CC(C)O :: 776.77

Below: the item to evaluate.
Query: Given the compound "CCC(C)=O" , what is its reported mass density?
Response: 794.63

Data provenance is the NIST ThermoML archive (doi:10.1016/j.tca.2012.12.008).
